Target: CDK7/cyclinH/MAT1 trimeric complex (Homo sapiens, UniProt P50613)
Sequence (P50613 whole entry): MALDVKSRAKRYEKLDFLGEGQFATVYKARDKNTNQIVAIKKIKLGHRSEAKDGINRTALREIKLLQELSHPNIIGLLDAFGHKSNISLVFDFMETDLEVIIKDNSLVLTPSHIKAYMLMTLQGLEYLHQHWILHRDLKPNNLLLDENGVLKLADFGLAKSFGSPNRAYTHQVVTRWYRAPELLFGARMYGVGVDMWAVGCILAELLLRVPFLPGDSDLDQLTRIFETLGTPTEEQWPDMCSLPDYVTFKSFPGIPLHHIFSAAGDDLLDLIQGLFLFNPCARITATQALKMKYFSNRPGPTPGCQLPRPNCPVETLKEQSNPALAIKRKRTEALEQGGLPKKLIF
Sequence (P51946 whole entry partner): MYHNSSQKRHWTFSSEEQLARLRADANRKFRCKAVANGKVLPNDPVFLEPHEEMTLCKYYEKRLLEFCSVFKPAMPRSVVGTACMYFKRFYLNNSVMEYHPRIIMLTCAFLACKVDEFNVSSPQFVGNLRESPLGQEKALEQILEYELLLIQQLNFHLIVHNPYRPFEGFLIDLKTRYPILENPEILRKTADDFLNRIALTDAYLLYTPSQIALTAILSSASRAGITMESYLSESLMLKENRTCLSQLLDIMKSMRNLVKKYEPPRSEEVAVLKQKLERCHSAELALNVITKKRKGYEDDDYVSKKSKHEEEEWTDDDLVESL
Sequence (P51948 whole entry partner): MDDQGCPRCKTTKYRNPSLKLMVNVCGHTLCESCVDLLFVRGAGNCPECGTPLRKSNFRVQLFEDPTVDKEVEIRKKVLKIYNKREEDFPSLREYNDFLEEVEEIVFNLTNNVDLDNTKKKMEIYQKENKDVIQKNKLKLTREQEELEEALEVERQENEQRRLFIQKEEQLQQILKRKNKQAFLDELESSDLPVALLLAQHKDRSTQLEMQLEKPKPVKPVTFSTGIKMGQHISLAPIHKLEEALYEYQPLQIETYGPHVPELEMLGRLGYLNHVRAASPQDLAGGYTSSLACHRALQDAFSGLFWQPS
Test: In vitro CDK7 assay, potency of irreversible covalent inhibitors (kinact/KI), coupled PK/LDH ADP readout at 340 nm
Details: CDK7 (20 nM enz.) (KI, μM), 20 nM enzyme
value-type: Ki (µM)

(a) C=CC(=O)N1CC[C@@H](N2CC(c3cc4c(c(C5CC5)n3)OCc3c(-c5cnn(C)c5)ccnc3N4)C2)C1 (single isomer, unassigned)
(b) CC#CC(=O)N1CC(N2CCC(c3cc4c(c(C5CC5)n3)OCc3c(C5CCOCC5)ccnc3N4)CC2)C1
QUERY: Given a and given b , which shows the smaller recorded Ki? Returns: label corresponding to the selected item.
RESULT: b

(A) C=CC(=O)N1CCC(N2CC(c3cc4c(c(C)n3)OCc3c(-c5cnn(C)c5)ccnc3N4)C2)CC1 [Compound 170]
(B) C=C(C(=O)N1CCC(N2CC(c3cc4c(c(C)n3)OCc3c(-c5cnn(C)c5)ccnc3N4)C2)CC1)n1cccn1
(C) C=CC(=O)N1CC(N2CCC(c3cc4c(cn3)O[C@@H](C)c3c(N5CCOCC5)ccnc3N4)CC2)C1 (single isomer, unassigned) [Compound 261]
(D) C=C(C)C(=O)N1CC(N2CCC(c3cc4c(c(C)n3)OCc3c(-c5cnn(C)c5)ccnc3N4)CC2)C1
QUERY: Place the items in sequence of falling Ki. Use the labels to give the requested order.
RESULT: D, C, A, B
